- Tested on: CEM cells HIV-1 protection, formazan growth assay
- Test description: NCI AIDS Antiviral Assay
- Condition label: measured here: growth of uninfected CEM cells
Property measured: IC50 (µM)
Write the number in µM without appending the unit.

Below, 4 compounds whose answers are already recorded.
                                   compound                        measurement_target  data_value
0  CCOC(=O)C(C)c1nc2cc(C(F)(F)F)ccc2[nH]c1=O (stereo not given)  CEM cells HIV-1 protection, formazan growth assay        81.3
1                    O=C1CSC(=S)N1Cc1ccncc1  CEM cells HIV-1 protection, formazan growth assay        4.27
2        Cc1nc2ccccc2c(=O)n1NC(=O)c1ccccc1O  CEM cells HIV-1 protection, formazan growth assay          38
3  Oc1c(C2=NNC(c3cccs3)C2)ccc2ccccc12 (stereo not given)  CEM cells HIV-1 protection, formazan growth assay        33.1

Suppose we examine the compound CC1([N+](=O)[O-])COP(=O)(Nc2cccc(Cl)c2)OC1 (stereo not given) ; what IC50 value has been reported?
398

Item CCCCn1c2c(c3ccccc3c1=O)C(=O)c1ccccc1-2 has what recorded IC50?
33.9
